Biological target: Norepinephrine transp. (Homo sapiens, UniProt P23975)
Sequence (P23975 whole entry): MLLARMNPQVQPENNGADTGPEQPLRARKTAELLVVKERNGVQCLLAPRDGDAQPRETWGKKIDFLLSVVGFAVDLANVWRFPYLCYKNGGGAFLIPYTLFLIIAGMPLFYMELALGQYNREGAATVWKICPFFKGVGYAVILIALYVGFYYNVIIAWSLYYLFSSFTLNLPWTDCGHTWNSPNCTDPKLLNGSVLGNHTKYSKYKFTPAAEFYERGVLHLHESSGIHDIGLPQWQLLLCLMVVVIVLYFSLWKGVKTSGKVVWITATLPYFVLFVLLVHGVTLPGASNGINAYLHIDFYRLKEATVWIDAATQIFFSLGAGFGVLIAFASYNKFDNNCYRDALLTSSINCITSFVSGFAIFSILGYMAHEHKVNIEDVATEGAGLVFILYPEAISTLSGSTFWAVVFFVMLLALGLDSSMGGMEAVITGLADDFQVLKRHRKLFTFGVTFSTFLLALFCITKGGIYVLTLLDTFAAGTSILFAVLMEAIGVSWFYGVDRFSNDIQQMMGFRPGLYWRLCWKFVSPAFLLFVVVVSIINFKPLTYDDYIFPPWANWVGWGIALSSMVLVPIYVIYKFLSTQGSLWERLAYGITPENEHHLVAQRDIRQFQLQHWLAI
assay.readout: IC50 (nM)
Write the value in nM as a bare number.

Give IC50; test system Norepinephrine transp. (Homo sapiens, UniProt P23975); compound `FCCC1CCN(c2ccn3c(n2)nc2ccccc23)CC1` 820

---

Biological target: AchE (Homo sapiens, UniProt P22303)
Sequence (P22303 32-614): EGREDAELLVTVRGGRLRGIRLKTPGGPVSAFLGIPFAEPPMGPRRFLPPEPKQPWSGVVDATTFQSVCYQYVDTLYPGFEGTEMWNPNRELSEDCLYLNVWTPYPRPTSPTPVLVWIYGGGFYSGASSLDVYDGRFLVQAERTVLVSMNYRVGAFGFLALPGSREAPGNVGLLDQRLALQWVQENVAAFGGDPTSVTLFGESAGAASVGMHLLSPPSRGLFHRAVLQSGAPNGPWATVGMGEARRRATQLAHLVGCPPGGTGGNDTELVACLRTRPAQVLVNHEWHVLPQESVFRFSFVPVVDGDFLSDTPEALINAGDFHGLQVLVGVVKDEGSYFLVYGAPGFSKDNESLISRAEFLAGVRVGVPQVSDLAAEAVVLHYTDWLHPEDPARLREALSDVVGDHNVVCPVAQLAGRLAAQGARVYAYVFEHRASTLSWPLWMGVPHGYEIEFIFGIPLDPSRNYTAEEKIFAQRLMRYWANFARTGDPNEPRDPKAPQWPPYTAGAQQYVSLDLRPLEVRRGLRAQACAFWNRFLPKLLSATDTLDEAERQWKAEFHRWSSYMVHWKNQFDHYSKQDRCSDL
In this section we review reported IC50 values for a set of compounds.
Write the value in µM as a bare number.

[[record]]
compound = "FCCC1CCN(c2ccn3c(n2)nc2ccccc23)CC1 [Compound T808]"
measured_on = "AchE (Homo sapiens, UniProt P22303)"
assay_readout = "IC50"
observed = 3


Give IC50; test system AchE (Homo sapiens, UniProt P22303); compound FC1CCN(c2ccn3c(n2)nc2ccccc23)CC1 [Compound T777] 3

---

Tested on: AD brain sections
Assay: Fluorescent compound staining on human AD brain sections (self-fluorescence, overall binding)
Conditions: Table 1 quinolines; 100 uM compound
assay.readout: Brain Section Staining: fluorescence

[[record]]
molecule = "Fc1ccc(-c2ccc3ccccc3n2)cn1 [Compound T455, 2-(6-Fluoropyridin-3-yl)quinoline]"
assay_readout = "Brain Section Staining: fluorescence"
observed = "No fluorescence"

[[record]]
molecule = "CNc1ccc(-c2cc3ccccc3cn2)cc1.Cl [Compound T501, 4-(Isoquinolin-3-yl)-N-methylaniline]"
assay_readout = "Brain Section Staining: fluorescence"
observed = "No fluorescence"

[[record]]
molecule = "CN1CCN(c2ccc(-c3cc(F)c4ccccc4n3)cc2)CC1 [Compound T559]"
assay_readout = "Brain Section Staining: fluorescence"
observed = "No fluorescence"


---

Target: Aβ plaques (Homo sapiens, UniProt P05067)
Construct: Native forms of tau (various isoforms, hyperphosphorylated) and amyloid aggregates are present in brain sections; from tissue; host or cells: human AD brain, frozen frontal lobe sections
Sequence (P05067 672-713 limits assumed): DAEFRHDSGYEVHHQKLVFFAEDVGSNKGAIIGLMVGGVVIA
Test: Fluorescent compound staining on human AD brain sections (β-amyloid IHC double labeling)
Type: binding
Conditions: Table 2 acetylenes; 100 uM compound; qualitative rating + to ++++ or words
assay.readout: Brain Section Staining: Ab (amyloid)

[[record]]
chemical_smiles = "CNc1ccc(C#Cc2nc3cc(OC)ccc3s2)cc1F"
assay_readout = "Brain Section Staining: Ab (amyloid)"
observed = "binds to Ab"

[[record]]
chemical_smiles = "CNc1ccc(C#Cc2nc3ccc(O)cc3s2)cc1F"
assay_readout = "Brain Section Staining: Ab (amyloid)"
observed = "binds to Ab"

[[record]]
chemical_smiles = "FCCCNc1ccc(C#Cc2ccc3ccccc3n2)cc1"
assay_readout = "Brain Section Staining: Ab (amyloid)"
observed = "binds to Ab"

